Data credit: patent US9951079B2

Below is a list of entries, each paired with its recorded IC50 value.
- Test system: HIV-1 (NL4-3 strain)
- assay_protocol: Assay for inhibition of HIV replication (MT4-gag-GFP reporter cell line, kinetic assay)
- Type: cell-based
- assay_context: Human immunodeficiency virus 1, NL43, Table A; infected MT4-GFP cells, RPMI + 0% normal human serum; IP from 4-parameter dose response curve; read-out: Wild Type Cell Assay IP (0% NHS)
Note: unit nM is implicit; provide only the numeric part.

As a guide, the following entries are already answered.
[[record]]
compound = "CCC(c1nnc(-c2cn3c(c(O)c2=O)C(=O)N(CC)[C@H]2COCC23)s1)c1ccc(F)cc1F (mixture of isomers) [Compound 6]"
tgt = "HIV-1 (NL4-3 strain)"
measurement = 31

[[record]]
compound = "CCN1C(=O)c2c(O)c(=O)c(C(=O)NCc3ccc(F)cc3F)cn2C2COC[C@@H]21 (single isomer, unassigned) [Compound 10]"
tgt = "HIV-1 (NL4-3 strain)"
measurement = 4


Challenge: Using the record for COCCN1C(=O)c2c(O)c(=O)c(-c3nnc(Cc4ccc(F)cc4F)s3)cn2C2COC[C@@H]21 (mixture of isomers) [Compound 8] , report its IC50.
Response given: 6

Challenge: Param item = CCN1C(=O)c2c(O)c(=O)c(-c3cn(Cc4ccc(F)cc4F)nn3)cn2C2COC[C@@H]21 (single isomer, unassigned) [Compound 16] ; retrieve measured IC50.
Response given: 38

Challenge: I would be grateful if you could share the reported IC50 for CCN1C(=O)c2c(O)c(=O)c(-c3nnc(Cc4ccc(F)cc4)s3)cn2C2COC[C@@H]21 (mixture of isomers) [Compound 7] .
Response given: 36

Challenge: Reported IC50, compound CCN1C(=O)c2c(O)c(=O)c(-c3cn(Cc4ccc(F)cc4F)nn3)cn2[C@@H]2COC[C@@H]21 (single isomer, unassigned) [Compound 15] : ____
Response given: 80
